Kindly supply the reported IC50 values for the records listed here.
- Assay System: human recombinant GST cleaved CSNK1D (Homo sapiens)
- Construct: GST (cleaved yes)
- Measurement Protocol: Purified Enzyme Assay (ADP-Glo CSNK1D Kinase Assay)
- Cond: 2 nM CSNK1D; peptide substrate 150 μM; ATP 20 μM; 45 minutes at room temperature

# Compound, IC50
records = [
    ("Cc1cc(-c2c(-c3ncc(F)cc3F)nn3c2OCCC3)c2cn[nH]c2n1", "10 nM"),
]

Can you give me IC50 for all of these, one by one?
1. Fc1ccc(-c2nn3c(c2-c2c(F)cnc4[nH]ncc24)OCC2(C3)CC2(F)F)cc1 (centres unmarked)
2. C[C@@H]1CCn2nc(-c3ccc(F)cn3)c(-c3ccnc4[nH]ncc34)c2O1 (single isomer, unassigned)

[reply]
2 nM
12 nM

Each of the following entries comes with a recorded value; kindly state IC50 for each.
1. COCC1(F)CCc2c(-c3c(F)c(C)nc4[nH]ncc34)c(-c3ccc(F)cn3)nn2C1 (single isomer, unassigned) [Example 309]
2. Cc1nc(-c2c(-c3ccc(F)cc3)nn3c2COC(C(F)(F)F)C3)c2cn[nH]c2n1 (single isomer, unassigned) [Example 377]
3. CC1(C)Cn2nc(-c3ccc(F)cn3)c(-c3ccnc(C(F)F)c3)c2CO1
4. CC1COc2c(-c3ccnc4[nH]ncc34)c(-c3ccc(F)cc3)nn2C1 (centres unmarked)
5. Fc1ccc(-c2nn3c(c2-c2ccnc4[nH]ncc24)CCC(F)(F)C3)nc1
6. Fc1ccc(-c2nn3c(c2-c2ccnc4[nH]ncc24)CC2(CC2)C3)cc1
7. Cc1cc(-c2c(-c3ccc(F)cn3)nn3c2OC(C)CC3C)c2cn[nH]c2n1 (single isomer, unassigned)

[reply]
1. 97 nM
2. 46 nM
3. 36 nM
4. < 0.5 nM
5. 16 nM
6. 2 nM
7. 51 nM

====

- Assay System: human CSNK1D (Homo sapiens)
- Measurement Protocol: Whole Cell nBRET CSNK1D Binding Assay
- Cond: living CHO cells stably expressing human CSNK1D tagged with nanoluciferase; NanoBret tracer 130 nM; 2 hours at 37 C
Value Type: IC50
Express the reported value numerically, then name its unit.

Example entries and their recorded answers appear below.
# Molecule, Assay System, Reported Value
measured = [
    ("Fc1ccc(-c2nn3c(c2-c2ccnc4[nH]ncc24)CO[C@@H](C2CCC2)C3)nc1 (single isomer, unassigned)", "human CSNK1D (Homo sapiens)", "1070 nM"),
    ("CC[C@@H]1Cn2nc(-c3ccc(F)cn3)c(-c3ccnc4[nH]ncc34)c2CO1 (single isomer, unassigned)", "human CSNK1D (Homo sapiens)", "557 nM"),
]

Consider the record given below.
[ask] // fetch human CSNK1D (Homo sapiens) IC50 for CC[C@H]1Cn2nc(-c3ccc(F)cn3)c(-c3ccnc4[nH]ncc34)c2CO1 (single isomer, unassigned)
[reply] 2730 nM

====

- Assay System: human recombinant GST cleaved CSNK1D (Homo sapiens)
- Construct: GST (cleaved yes)
- Measurement Protocol: Purified Enzyme Assay (ADP-Glo CSNK1D Kinase Assay)
- Cond: 2 nM CSNK1D; peptide substrate 150 μM; ATP 20 μM; 45 minutes at room temperature
Value Type: IC50 (nM)
Numbers only, in nM.

# Compound, Unit, IC50
rows = [
    ("Cc1cc(-c2c(-c3ccc(F)cn3)nn3c2COCC3(C)C)c2cn[nH]c2n1", "nM", 111),
    ("Cc1nc2[nH]ncc2c(-c2c(-c3ccc(F)cn3)nn3c2OC[C@H]2C[C@H]2C3)c1F (stereo in doubt)", "nM", 8),
    ("CC1(C)Cn2nc(-c3ccc(F)cn3)c(-c3ccnc4ccsc34)c2CO1", "nM", 54),
    ("Fc1ccc(-c2nn3c(c2-c2ccnc4[nH]ncc24)CCC3)nc1", "nM", 7),
    ("C[C@@H]1[C@@H](C)OCc2c(-c3ccnc4[nH]ncc34)c(-c3ccc(F)cc3)nn21 (relative stereo)", "nM", 6),
]

Could you report IC50 for every entry in the following list?
1. Fc1ccc(-c2nn3c(c2-c2ccnc4[nH]ncc24)[C@@H](Cl)C[C@]2(C3)CC2(F)F)nc1 (single isomer, unassigned)
2. Cc1cc(-c2c(-c3ccc(F)cc3)nn3c2CO[C@@H](C)C3)c2cn[nH]c2n1 (single isomer, unassigned)

[reply]
1: 3; 2: 3

====

Kindly supply the reported IC50 values for the records listed here.
- Assay System: human recombinant GST cleaved CSNK1D (Homo sapiens, UniProt P48730)
- Construct: GST (cleaved yes)
- Sequence (P48730 whole entry): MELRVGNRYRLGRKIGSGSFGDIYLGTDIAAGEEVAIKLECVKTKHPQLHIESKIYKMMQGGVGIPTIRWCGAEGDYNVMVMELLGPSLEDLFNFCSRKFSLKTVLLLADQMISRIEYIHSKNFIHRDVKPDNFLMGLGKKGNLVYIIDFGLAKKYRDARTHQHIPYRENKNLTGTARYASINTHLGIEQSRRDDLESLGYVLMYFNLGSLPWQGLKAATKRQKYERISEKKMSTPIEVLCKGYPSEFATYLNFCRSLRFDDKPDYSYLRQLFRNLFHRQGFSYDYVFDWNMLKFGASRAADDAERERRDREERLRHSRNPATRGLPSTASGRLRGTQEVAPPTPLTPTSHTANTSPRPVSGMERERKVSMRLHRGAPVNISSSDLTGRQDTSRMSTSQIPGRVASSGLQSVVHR
- Measurement Protocol: Purified Enzyme Assay (ADP-Glo CSNK1D Kinase Assay)
- Cond: 2 nM CSNK1D; peptide substrate 150 μM; ATP 20 μM; 45 minutes at room temperature
Numbers only, in nM.

# Compound, IC50 [nM]
rows = [
    ("COC1(C)COCc2c(-c3ccnc4[nH]ncc34)c(-c3ccc(F)cn3)nn2C1 (single isomer, unassigned) [Example 486]", 763),
    ("CC1(C)Cn2nc(-c3ccc(F)cn3)c(-c3ccnc(NC(=O)C4CC4)c3)c2CO1 [Example 134]", 1),
    ("Fc1ccc(-c2nn3c(c2-c2ccnc4[nH]ncc24)CC(F)(F)CC3)nc1 [Example 48]", 40),
]

[ask] Using the record for Cc1nc2[nH]ncc2c(-c2c(-c3ccc(F)cn3)nn3c2CC(C)(C)C3)c1F [Example 240] , report its IC50.
[reply] 2

====

- Assay System: human recombinant GST cleaved CSNK1D (Homo sapiens, UniProt P48730)
- Construct: GST (cleaved yes)
- Measurement Protocol: Purified Enzyme Assay (ADP-Glo CSNK1D Kinase Assay)
- Cond: 2 nM CSNK1D; peptide substrate 150 μM; ATP 20 μM; 45 minutes at room temperature
Record form. Attribute: pIC50. Fill in for each entry.
Numbers only, as −log10 of the molar value.

# Compound, pIC50
measured = [
    ("COC[C@]1(F)CCc2c(-c3ccnc4[nH]ncc34)c(-c3ccc(F)cn3)nn2C1 (single isomer, unassigned)", 7.12),
    ("Fc1ccc(-c2nn3c(c2-c2c(F)cnc4[nH]ncc24)CCC2(C3)CC2(F)F)nc1 (single isomer, unassigned)", 8.70),
    ("Fc1ccc(-c2nn3c(c2-c2ccnc4[nH]ncc24)OCC2(CC2)C3)nc1", 8.70),
]

Please look at the following compound next.
[ask] Dear colleague, I am looking for the recorded pIC50 of the following compound: "Cc1cc(-c2c(-c3ccc(F)cc3)nn3c2COCC32CC2)c2cn[nH]c2n1"
[reply] 8.05

====

- Assay System: human CSNK1D (Homo sapiens, UniProt P48730)
- Sequence (P48730 whole entry): as above
- Measurement Protocol: Whole Cell nBRET CSNK1D Binding Assay
- Cond: living CHO cells stably expressing human CSNK1D tagged with nanoluciferase; NanoBret tracer 130 nM; 2 hours at 37 C
Lab note: anything with IC50 below 200 nM is marked true; values at 200 nM or higher are marked false.

For orientation, consider the following solved cases.
# Molecule, Discrete Label
records = [
    ("C[C@@H]1OCc2c(-c3ccnc4[nH]ncc34)c(-c3ccc(F)cn3)nn2[C@@H]1C (single isomer, unassigned)", "false"),
    ("Fc1ccc(-c2nn3c(c2-c2ccnc4[nH]ncc24)C2CCC3CC2)cc1", "true"),
    ("C[C@@H]1[C@@H](C)OCc2c(-c3ccnc4[nH]ncc34)c(-c3ccc(F)cn3)nn21 (stereo in doubt)", "false"),
    ("Cc1cc(-c2c(-c3ccc(F)cc3)nn3c2COCC32CC2)c2cn[nH]c2n1", "true"),
]

[ask] Hello, I'm reviewing records and need to know if IC50 of "CCC(=O)Nc1cc(-c2c(-c3ccc(F)cn3)nn3c2OCC(C)(C)C3)ccn1" is below 200 nM. Could you check?
[reply] true

[ask] Query "[2H]C([2H])([2H])C1(C([2H])([2H])[2H])Cn2nc(-c3ccc(F)cn3)c(-c3c(F)cnc4[nH]ncc34)c2CO1" next
[reply] true

[ask] Please do the same for Cc1n[nH]c2ncc(F)c(-c3c(-c4ccc(F)cn4)nn4c3CC[C@@H]3C[C@@H]34)c12 (single isomer, unassigned) as well.
[reply] false

[ask] And Fc1ccc(-c2nn3c(c2-c2ccnc4[nH]ncc24)CO[C@H](C2CC2)C3)nc1 (single isomer, unassigned) ?
[reply] false

[ask] Item: "CC1(C)Cn2nc(-c3ccc(F)cn3)c(-c3ccn4nccc4n3)c2CO1"
[reply] false

[ask] Follow-up item: Cc1n[nH]c2nccc(-c3c(-c4ccc(F)cc4)nn4c3COC(C(F)(F)F)C4)c12 (single isomer, unassigned) [Example 373]
[reply] false

[ask] Same lookup for C[C@@H]1C[C@@H](C)n2nc(-c3ccc(F)cn3)c(-c3ccnc4[nH]ncc34)c2O1 (single isomer, unassigned) , please.
[reply] false

[ask] # iterate: COC1(C)COCc2c(-c3ccnc4[nH]ncc34)c(-c3ccc(F)cn3)nn2C1 (single isomer, unassigned) [Example 485]
[reply] false

[ask] Now give it for Cc1cc(-c2c(-c3ccc(F)cn3)nn3c2O[C@H](C)C[C@H]3C)c2cn[nH]c2n1 (single isomer, unassigned) too.
[reply] false

[ask] Item: C[C@]1(C(F)(F)F)Cn2nc(-c3ccc(F)cn3)c(-c3ccnc4[nH]ncc34)c2CO1 (single isomer, unassigned)
[reply] false

[ask] Record: CC1(CF)CCc2c(-c3ccn4nccc4c3)c(-c3ccc(F)cn3)nn2C1 (single isomer, unassigned) [Example 290]
[reply] true

[ask] Next entry: "Nc1cc(-c2c(-c3ccc(F)cc3)nn3c2CCC(F)(F)C3)ccn1"
[reply] true

[ask] Try this molecule too: [2H]C([2H])([2H])[C@@]1(C(F)(F)F)Cn2nc(-c3ccc(F)cn3)c(-c3ccnc4[nH]nc(Cl)c34)c2CO1 (single isomer, unassigned)
[reply] true

[ask] Also need "Fc1ccc(-c2nn3c(c2-c2ccnc4[nH]ncc24)CC(F)(F)CC3)nc1" , thanks.
[reply] false

[ask] Fc1ccc(-c2nn3c(c2-c2ccnc4[nH]ncc24)[C@@H]2CC[C@H]3C2)nc1 (single isomer, unassigned) ?
[reply] true

[ask] Request: "CCn1ncc2cc(-c3c(-c4ccc(F)cn4)nn4c3CO[C@@H](C)C4)cnc21"
[reply] false

[ask] Now try C[C@@H]1Cn2nc(-c3ccc(F)cn3)c(-c3ccnc4[nH]ncc34)c2CO1 (single isomer, unassigned) .
[reply] false

[ask] Item: "CCn1ncc2cc(-c3c(-c4ccc(F)cn4)nn4c3OCCC4)cnc21"
[reply] false

[ask] Same thing, different molecule: Fc1ccc(-c2nn3c(c2-c2c(F)cnc4[nH]ncc24)CC[C@@]2(C3)CC2(F)F)nc1 (single isomer, unassigned)
[reply] true
